# Test system: LOX IMVI melanoma
# protocolSummary: NCI tumour cell line growth inhibition, 48 h
# reported GI50; entries follow

Solved entries:
| compound | GI50 |
| --- | --- |
| COc1cc2c(cc1OCCCCCCN1CCN(c3ncnc4ccccc34)CC1)N=CC1CCCN1C2=O (configuration not stated) | 0.0319 µM |
| C=C[C@H]1CCC/C=C/[C@@H]2C[C@H](O)C[C@H]2[C@H](O)/C=C/C(=O)O1 | 0.0222 µM |

Problem: Recall and state the measured GI50 for NC(=O)c1ccc2c(-c3ccnc(NCCCO)n3)c(-c3ccc(F)cc3)nn2c1 .
Solution: > 25 µM

Problem: Indicate the recorded GI50 value for this compound: CC[O-].CC[O-].O=C1C(c2ccccc2)=C([O-])c2ccccc21.O=C1C(c2ccccc2)=C([O-])c2ccccc21.[Ti+4]
Solution: > 100 µM

Problem: Return GI50 for the following compound: COc1ccc(-c2nc3ncccn3c2/C=C/C(=O)c2cc(OC)c(OC)c(OC)c2)cc1
Solution: 1.46 µM

Problem: For the compound COc1ccc(C2=C(c3ccc(OC)c(OC)c3)C(=O)OC2)cc1 , report GI50.
Solution: < 0.01 µM

Problem: Return GI50 for the following compound: O=C([CH-]C(=O)c1ccccc1)c1ccccc1.O=C([CH-]C(=O)c1ccccc1)c1ccccc1.O=C([CH-]C(=O)c1ccccc1)c1ccccc1.[OH3+].[Y+3]
Solution: 3.74 µM

Problem: Supply recorded GI50 for Cc1cc(N2CCCC2)nc(NC2CCCC(Nc3ccnc4cc(Cl)ccc34)C2)n1 (configuration not stated) here.
Solution: 0.681 µM

Problem: Write down GI50 measured for item CCOc1ccc(Nc2nc(-c3ccc4c(c3)NC(=O)CO4)cs2)cc1
Solution: 5.33 µM

Problem: Please report the measured GI50 for O=CN1N=C(c2ccc(Cl)cc2)CC1c1cccc(Nc2ccnc3cc(Cl)ccc23)c1 (configuration not stated)
Solution: 1.29 µM

Problem: Determine from records and report GI50 for O=C([O][Hg][CH2]C1COCC([CH2][Hg][O]C(=O)c2ccccc2)O1)c1ccccc1 (configuration not stated)
Solution: 1.73 µM

Problem: Give recorded GI50. CC1(C)CC(n2cnc(-c3ccc(F)cc3)c2-c2ccnc(N)n2)CC(C)(C)N1
Solution: > 19.7 µM

---

# Tested on: SK-MEL-28 melanoma
# protocolSummary: NCI tumour cell line growth inhibition, 48 h
Reported TGI values follow for various molecules

| structureNotation | recordedEndpoint | reportedResult |
| --- | --- | --- |
| NNc1nc2ccccc2s1 | TGI | > 100 µM |

Problem: Provide measured TGI on SK-MEL-28 melanoma for O=C1c2c(ccc3c2CCC3)CC12Cc1cc3c(cc1C2)CCC3 please.
Solution: > 100 µM

Problem: Provide TGI, tested on SK-MEL-28 melanoma, for C=C[C@H]1CCC/C=C/[C@@H]2C[C@H](O)C[C@H]2[C@H](O)/C=C/C(=O)O1 .
Solution: 0.404 µM

---

# Test system: NCI-H460 lung
# protocolSummary: NCI tumour cell line growth inhibition, 48 h
recordedEndpoint: TGI

| molecule | TGI |
| --- | --- |
| CCOc1ccc(Nc2nc(-c3ccc4c(c3)NC(=O)CO4)cs2)cc1 | > 100 µM |
| NC(=O)c1ccc2c(-c3ccnc(NCCCO)n3)c(-c3ccc(F)cc3)nn2c1 | > 25 µM |
| Cc1ccc(-c2nc(N)nc3c2nnn3Cc2cccc(CO[C@H]3CCOC3)n2)o1 | > 100 µM |
| COc1ccc(NC(C)=O)cc1C1CCC(=O)N1 (stereo unspecified) | > 100 µM |
| CC(=O)OC1COC(n2c(-c3ccc(Cl)cc3)cc(-c3ccccc3)c(C#N)c2=S)C(OC(C)=O)C1OC(C)=O (stereo unspecified) | > 66.8 µM |

Kindly review the next molecule as well.
Problem: Please give measured TGI of the following entry: COc1ccc(C2=C(N)c3c(OC)cccc3C2=O)cc1
Solution: > 100 µM

Source listed as PubChem BioAssay (NCI).
